ASSAY EXPLANATION: A CellTox Green Cytotoxicity Assay to monitor cytotoxicity in HepG2 cells - 32 hour (AID 1224883); also: nearly all actives have a fitted effect of over 50% in size
CONDITION LABEL: CellTox Green fluorescence; series mostly up to 76.8 µM
Results filed as inconclusive are left out. Activity calls are given as the source filed them. Calls follow the shape of the dose curve; as a rule, active = well fitted activation curve with a large enough effect in the repeat runs; inconclusive = weak or mixed curves; inactive = flat fitted curve, though single readings scatter.
// allowed return values: t = active, f = inactive

Query: Short answer needed: outcome of this test for CNC(=O)c1cnn(-c2nc(N)c3ncn([C@@H]4O[C@H](CO)[C@@H](O)[C@H]4O)c3n2)c1 ?
Response: f

###

ASSAY EXPLANATION: qHTS assay to identify small molecule agonists of the progesterone receptor (PR) signaling pathway - cell viability counter screen (AID 1346799); also: nearly all actives have a fitted effect of over 45% in size
CONDITION LABEL: PR-UAS-bla HEK293T viability, CellTiter-Glo luminescence, 16 h; series mostly up to 92.4 µM
Results filed as inconclusive are left out. Activity calls are given as the source filed them. Calls come from the whole dose curve.
// allowed return values: yes (1) for active, no (0) for inactive

COMPOUND	QUALITATIVE LABEL
CCCCCCCCN	no (0)
COc1ccccc1Oc1c(NS(=O)(=O)c2ccc(C(C)(C)C)cc2)nc(-c2ncccn2)nc1OCCO	no (0)
CCCCCCCCCCCCCCN(CCO)CCO	yes (1)
CC1CC(OC(=O)C(O)c2ccccc2)CC(C)(C)N1C (stereo not drawn)	no (0)
O=C1c2ccccc2C(=O)C1c1nc2ccccc2c(Br)c1O	no (0)

Query: Short answer needed: outcome of this test for CNC(=O)c1cnn(-c2nc(N)c3ncn([C@@H]4O[C@H](CO)[C@@H](O)[C@H]4O)c3n2)c1 ?
Response: no (0)

Query: Short answer needed: outcome of this test for CO/N=C(/C(=O)N[C@@H]1C(=O)N2C(C(=O)O)=C(COC(N)=O)CS[C@H]12)c1ccco1 ?
Response: no (0)

Query: Short answer needed: outcome of this test for COc1cc(N)c(Cl)cc1C(=O)NC1CCN(CCCOc2ccc(F)cc2)CC1OC (stereo not drawn) ?
Response: no (0)

Query: Short answer needed: outcome of this test for Nc1ncnc2c1ncn2[C@H]1CC[C@@H](CO)O1 ?
Response: no (0)

Query: Short answer needed: outcome of this test for CCC1NC(=O)c2cc(S(N)(=O)=O)c(Cl)cc2N1 (stereo not drawn) ?
Response: no (0)

Query: Short answer needed: outcome of this test for Cc1ccccc1S ?
Response: no (0)

Query: Short answer needed: outcome of this test for O=C1CCCCCCCCCCOCCCCO1 ?
Response: no (0)

Query: Short answer needed: outcome of this test for Clc1cc(Cl)nc(Cl)n1 ?
Response: no (0)

Query: Short answer needed: outcome of this test for Cc1cccc(N(C)C(=S)Oc2ccc3c(c2)CCC3)c1 ?
Response: no (0)

Query: Short answer needed: outcome of this test for C/C=C/C=C/C=O ?
Response: no (0)

Query: Short answer needed: outcome of this test for Cc1[nH]cnc1CN1CCc2c(c3ccccc3n2C)C1=O ?
Response: no (0)
